For each record, write down the corresponding INHIBITION.
Test system: Plasmodium berghei
ASSAY PROTOCOL: Screen against P. berghei liver stage (PbLuc), transformed with Luciferase, at 10uM
Format: functional, HepG2
EXPERIMENTAL CONDITIONS: tested at 10 uM
About 8,600 (12%) of roughly 69,000 compounds showed an effect of 50% or more. For the sample, strong results were picked, then their nearest neighbours and some compounds at random.
Expressed in %, but write only the number.

Q) Please give the measured INHIBITION for this compound: `Cc1nc(CNC(=O)Nc2cc(F)ccc2OC(F)F)no1`
A) 5.91

Q) Field request: INHIBITION | item: CC1CN(C)c2ccccc2CN1C(=O)NCc1ccon1 (stereo unspecified)
A) 4.6

Q) State the recorded INHIBITION for this entry: Cc1ccc(CN2CCC3(CCC3NS(=O)(=O)c3ccccc3)CC2)o1 (stereo unspecified)
A) -12.4

Q) Field request: INHIBITION | item: CN(C)CCOCC1CN(Cc2ccsc2)Cc2nnn(C)c21 (stereo unspecified)
A) 38.2

Q) For the compound shown here, `CCc1cc(CNC(=O)Nc2cc(F)ccc2N2CCCCC2)on1` , give the reported INHIBITION.
A) 26.6

Q) Reported INHIBITION for `c1cc(CCNc2ncc(-c3cnccn3)c(C3CC3)n2)ccn1` : what is it?
A) 28.5
